Just for reference, paper PMC10454678 is where these values come from.

# Tested on: Staphylococcus aureus ATCC25923
# assay_overview: MIC, microdilution, S. aureus
# Type: cell-based
# experimental_context: Staphylococcus aureus, ATCC25923; Gram (+); Mueller-Hinton broth, 18-24 h, 36 °C; read-out: MIC Sa

compound: O=C(C(=O)c1cc(O)cc(O)c1)c1cccc(O)c1
unit_annotation: µg/mL
MIC: 11

compound: CC1(C)S[C@@H]2[C@H](NC(=O)[C@H](N)c3ccccc3)C(=O)N2[C@H]1C(=O)O [Amp., Ampicillin, reference compound]
unit_annotation: µg/mL
MIC: 35

compound: O=C(c1ccc(O)cc1)C(O)c1cccc(O)c1 (stereo not drawn)
unit_annotation: µg/mL
MIC: 96

---

# study_target: butyrylcholinesterase (Homo sapiens)
# Sequence (P06276 29-602): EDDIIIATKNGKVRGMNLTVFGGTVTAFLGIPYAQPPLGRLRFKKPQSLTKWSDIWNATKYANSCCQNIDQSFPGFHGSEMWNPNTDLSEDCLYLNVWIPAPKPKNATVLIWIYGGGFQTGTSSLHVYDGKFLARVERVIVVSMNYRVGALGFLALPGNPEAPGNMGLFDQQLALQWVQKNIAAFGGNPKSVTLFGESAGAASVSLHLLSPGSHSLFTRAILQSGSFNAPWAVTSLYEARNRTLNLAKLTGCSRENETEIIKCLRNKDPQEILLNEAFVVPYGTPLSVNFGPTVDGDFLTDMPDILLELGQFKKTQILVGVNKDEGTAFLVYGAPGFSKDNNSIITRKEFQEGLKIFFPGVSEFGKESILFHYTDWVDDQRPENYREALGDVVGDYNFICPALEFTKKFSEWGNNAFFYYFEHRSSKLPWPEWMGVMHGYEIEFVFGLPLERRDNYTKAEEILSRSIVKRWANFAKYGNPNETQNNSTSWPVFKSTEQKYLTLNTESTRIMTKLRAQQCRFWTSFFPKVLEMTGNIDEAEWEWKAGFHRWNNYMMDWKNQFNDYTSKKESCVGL
# assay_overview: biochemical
# experimental_context: Tris-HCl pH 8.0, 25 °C, 405 nm; read-out: BChE IC50 (converted)
List of IC50 values.
value_kind: IC50

molecule: O=C(C(=O)c1cccc(OC2O[C@H](CO)[C@@H](O)[C@H](O)[C@H]2O)c1)c1ccccc1 (some centres unmarked)
observed_measurement: > 2.57 mM
//
molecule: O=C(c1ccc(OC2O[C@H](CO)[C@@H](O)[C@H](O)[C@H]2O)cc1)C(O)c1cccc(OC2O[C@H](CO)[C@@H](O)[C@H](O)[C@H]2O)c1 (some centres unmarked)
observed_measurement: > 1.76 mM
//
molecule: O=C(C(=O)c1cc(O)cc(O)c1)c1cc(O)cc(O)c1
observed_measurement: > 3.65 mM
//
molecule: O=C(C(=O)c1cc(O)cc(O)c1)c1ccccc1
observed_measurement: > 4.13 mM
//
molecule: O=C(C(=O)c1cccc(O)c1)c1ccccc1
observed_measurement: > 4.42 mM
//
molecule: O=C(c1cccc(OC2O[C@H](CO)[C@@H](O)[C@H](O)[C@H]2O)c1)C(O)c1ccccc1 (some centres unmarked)
observed_measurement: > 2.56 mM
//
molecule: O=C(c1cc(OC2O[C@H](CO)[C@@H](O)[C@H](O)[C@H]2O)cc(OC2O[C@H](CO)[C@@H](O)[C@H](O)[C@H]2O)c1)C(O)c1ccccc1 (some centres unmarked)
observed_measurement: > 1.76 mM
//
molecule: O=C(C(=O)c1ccc(O)cc1)c1ccccc1
observed_measurement: > 4.42 mM

---

# System: Candida albicans ATCC60193
# assay_overview: MIC, microdilution, C. albicans
# Format: cell-based
# experimental_context: Candida albicans, ATCC60193; fungus; YEPD broth, 48 h, 36 °C; read-out: MIC Ca
List of MIC values.
value_kind: MIC (µg/mL)

molecule: OC(Cn1cncn1)(Cn1cncn1)c1ccc(F)cc1F [Flu., Fluconazole, reference compound]
value_modifier: <
observed_measurement: 8

molecule: O=C(c1cccc(O)c1)C(O)c1cccc(O)c1 (centres unmarked) [Compound 4]
value_modifier: =
observed_measurement: 1280

molecule: O=C(C(=O)c1cccc(O)c1)c1ccc(O)cc1 [Compound 12]
value_modifier: =
observed_measurement: 18

molecule: O=C(C(=O)c1cccc(O)c1)c1ccccc1 [Compound 8]
value_modifier: =
observed_measurement: 41

molecule: O=C(C(=O)c1cccc(O)c1)c1cccc(O)c1 [Compound 11, 1,2-Bis(3-hydroxyphenyl)ethane-1,2-dione]
value_modifier: =
observed_measurement: 36
